# TARGET_ENTITY: sortase A (Staphylococcus aureus)
# Construct: gene srtA
# Sequence (Q2FV99 whole entry): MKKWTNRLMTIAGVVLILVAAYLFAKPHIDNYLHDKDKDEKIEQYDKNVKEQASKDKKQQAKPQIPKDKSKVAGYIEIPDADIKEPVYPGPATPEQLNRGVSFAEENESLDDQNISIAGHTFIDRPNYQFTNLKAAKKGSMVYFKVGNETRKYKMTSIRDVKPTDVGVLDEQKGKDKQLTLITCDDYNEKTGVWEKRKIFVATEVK
# PROCEDURE_DETAILS: SensoLyte […] Sortase A FRET substrate cleavage assay (5-FAM/QXL)
# Format: biochemical
# TEST_SETTINGS: read-out: IC50
ASSAY_METRIC: IC50
Put your answer as a value accompanied by its unit after it.

If you can, please state the reported IC50 value of CCN(CC)CCCNc1cc([N+](=O)[O-])ccc1-c1ncc2ccccc2n1 [compound 1] .
160 µM
